B1: library; numbered along this chain (parent)
chain: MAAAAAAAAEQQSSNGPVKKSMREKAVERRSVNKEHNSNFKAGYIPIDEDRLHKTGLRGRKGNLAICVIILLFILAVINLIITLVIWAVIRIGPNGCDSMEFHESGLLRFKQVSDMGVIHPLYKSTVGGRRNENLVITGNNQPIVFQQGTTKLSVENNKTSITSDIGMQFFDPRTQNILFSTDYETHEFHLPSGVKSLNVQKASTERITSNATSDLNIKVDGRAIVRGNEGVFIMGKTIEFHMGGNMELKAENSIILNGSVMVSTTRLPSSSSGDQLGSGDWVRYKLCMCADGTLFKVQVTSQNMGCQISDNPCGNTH

Variants of: B1
method.description: SGCB cell-surface expression functional score (HA stain, bin4 vs bin1, normalised to synonymous) (log10 ratio); higher = more cell-surface SGCB (functional)
readout: SGCB cell-surface expression functional score (log10)
Give bare numbers.

Example cases with answers are listed next.
> print(dat)
   mutant.id  value.measured
1      V232R           -1.12
2      L287N           -2.02

The following variants each have a reported value; give each one's SGCB cell-surface expression functional score (log10).
1. K54E
2. E156A
3. R109D
4. M289T
5. D172F
6. Q169D

A.
[0.02, -0.03, -0.93, -0.81, -0.3, -0.37]

The following variants each have a reported value; give each one's SGCB cell-surface expression functional score (log10).
1. S214F
2. S14P

A.
[-1.55, 0.22]

The following variants each have a reported value; give each one's SGCB cell-surface expression functional score (log10).
1. S310V
2. K34I
3. S181P
4. E156T
5. R267A

A.
[0.14, -0.05, -1.69, -0.18, 0.63]

The following variants each have a reported value; give each one's SGCB cell-surface expression functional score (log10).
1. E248S
2. G194R
3. K159Q
4. D48H
5. S164G
6. K202H
7. M243E

A.
1. 0.4
2. -0.07
3. -0.09
4. 0.33
5. -0.13
6. -1.29
7. 0.01

The following variants each have a reported value; give each one's SGCB cell-surface expression functional score (log10).
1. N79W
2. Q142D
3. E188A
4. P269K
5. V77Y
6. K20I
7. T83P

A.
1: -1.05; 2: -0.54; 3: -1.13; 4: 0.01; 5: -0.22; 6: 0.09; 7: -0.3

The following variants each have a reported value; give each one's SGCB cell-surface expression functional score (log10).
1. S105M
2. L80Y
3. Q276I
4. G280E

A.
[-0.33, 0.27, 0.1, 0.02]

The following variants each have a reported value; give each one's SGCB cell-surface expression functional score (log10).
1. Y184N
2. K41V
3. S264H
4. K34Q
5. S279R

A.
1. -1.22
2. 0.04
3. 0.22
4. -0.08
5. 0.16

The following variants each have a reported value; give each one's SGCB cell-surface expression functional score (log10).
1. D50A
2. N95F

A.
1. 0.14
2. 0.3
